value-type: melting point

Answered examples (5):
[
  {
    "compound": "Cc1c2cnn(-c3ccccc3)c(=O)c2c(C)n1-c1cccc(O)c1",
    "result": "252 to 254 °C"
  },
  {
    "compound": "COCCNc1cccc(-n2c(C)c3cnn(-c4ccccc4)c(=O)c3c2C)c1",
    "result": "116 to 119 °C"
  },
  {
    "compound": "CNCc1ccc(-n2ncc3c(C)n(-c4cccc(OC)c4)c(C)c3c2=O)cc1",
    "result": "150 to 154 °C"
  },
  {
    "compound": "COc1cccc(-n2c(C)c3cnn(-c4cc(OC)ccn4)c(=O)c3c2C)c1",
    "result": "95 to 97 °C"
  },
  {
    "compound": "Cc1c2cnn(-c3ccccn3)c(=O)c2c(C)n1-c1cccc(-n2nccn2)c1",
    "result": "173 °C"
  }
]

Consider "COc1cccc(-n2c(C)c3cnn(-c4ccc(CN)cc4)c(=O)c3c2C)c1" . Its measured melting point is 145 to 155 °C

Consider "CCN(CC)c1cccc(-n2c(C)c3cnn(-c4ccccn4)c(=O)c3c2C)c1" . Its measured melting point is < 85 °C

----------
molecular target: human metabotropic glutamate 7 receptor (hmGlu7) (Homo sapiens); experiment: mGlu7 assay on HEK-expressing human mGlu7: fluorescent cell based Ca2+ mobilization assay (FLIPR), inhibition of EC80 L-AP4 response; conditions: HEK-293 cells expressing hmGlu7; EC80 L-AP4 stimulation; mean of at least three independent experiments in duplicate; read-out: Ca2+ Flux (mean IC50)
Sequence (Q14831 35-922 isoform Q14831-2): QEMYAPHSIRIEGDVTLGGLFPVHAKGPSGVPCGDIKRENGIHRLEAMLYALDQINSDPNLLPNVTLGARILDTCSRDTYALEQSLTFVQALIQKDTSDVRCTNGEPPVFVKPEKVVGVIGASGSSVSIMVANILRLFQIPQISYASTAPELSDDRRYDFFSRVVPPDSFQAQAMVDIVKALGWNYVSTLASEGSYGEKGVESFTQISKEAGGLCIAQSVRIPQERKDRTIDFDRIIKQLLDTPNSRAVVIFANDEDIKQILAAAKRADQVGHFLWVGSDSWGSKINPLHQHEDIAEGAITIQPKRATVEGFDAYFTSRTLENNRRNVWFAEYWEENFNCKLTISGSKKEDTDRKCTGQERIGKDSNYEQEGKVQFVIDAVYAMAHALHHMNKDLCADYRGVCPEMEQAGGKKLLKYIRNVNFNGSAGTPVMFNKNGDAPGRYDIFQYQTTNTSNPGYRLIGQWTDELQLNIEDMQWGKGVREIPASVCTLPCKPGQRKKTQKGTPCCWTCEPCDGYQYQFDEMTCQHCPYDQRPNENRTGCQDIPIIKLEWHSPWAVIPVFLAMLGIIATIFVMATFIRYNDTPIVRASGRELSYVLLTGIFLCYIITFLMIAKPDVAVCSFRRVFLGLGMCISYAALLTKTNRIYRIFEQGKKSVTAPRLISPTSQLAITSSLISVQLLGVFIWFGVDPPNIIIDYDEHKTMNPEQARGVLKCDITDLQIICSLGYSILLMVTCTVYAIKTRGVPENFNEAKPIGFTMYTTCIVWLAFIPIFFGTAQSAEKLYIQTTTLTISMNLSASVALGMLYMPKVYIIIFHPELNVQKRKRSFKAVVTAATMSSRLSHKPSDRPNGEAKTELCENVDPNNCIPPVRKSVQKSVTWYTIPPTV
pIC50: −log10 of the molar value.
value-type: pIC50

Answered examples (8):
[
  {
    "substance-smiles": "Cc1c2cnn(-c3ccccc3)c(=O)c2c(C)n1-c1cccc(N(C)C)c1",
    "target-of-assay": "human metabotropic glutamate 7 receptor (hmGlu7) (Homo sapiens)",
    "result": "> 7.00"
  },
  {
    "substance-smiles": "COc1cccc(-n2c(C)c3cnn(-c4cccc(C(N)=O)c4)c(=O)c3c2C)c1",
    "target-of-assay": "human metabotropic glutamate 7 receptor (hmGlu7) (Homo sapiens)",
    "result": "6.00 to 7.00"
  },
  {
    "substance-smiles": "Cc1c2cnn(-c3ncc(F)cn3)c(=O)c2c(C)n1-c1cccc2c1ccn2C1CC1",
    "target-of-assay": "human metabotropic glutamate 7 receptor (hmGlu7) (Homo sapiens)",
    "result": "> 7.00"
  },
  {
    "substance-smiles": "Cc1c2cnn(-c3ccccc3F)c(=O)c2c(C)n1-c1cccc(N2CCC2)c1",
    "target-of-assay": "human metabotropic glutamate 7 receptor (hmGlu7) (Homo sapiens)",
    "result": "> 7.00"
  },
  {
    "substance-smiles": "COc1cccc(-n2c(C)c3cnn(-c4ccc(OC)c(OC)c4)c(=O)c3c2C)c1",
    "target-of-assay": "human metabotropic glutamate 7 receptor (hmGlu7) (Homo sapiens)",
    "result": "6.00 to 7.00"
  },
  {
    "substance-smiles": "Cc1c2cnn(-c3ccccn3)c(=O)c2c(C)n1-c1cccc(N2CCC2)c1",
    "target-of-assay": "human metabotropic glutamate 7 receptor (hmGlu7) (Homo sapiens)",
    "result": "> 7.00"
  },
  {
    "substance-smiles": "Cc1c2cnn(-c3ccc(N4CCCC4)cc3)c(=O)c2c(C)n1-c1cccc(N2CCC2)c1",
    "target-of-assay": "human metabotropic glutamate 7 receptor (hmGlu7) (Homo sapiens)",
    "result": "6.00 to 7.00"
  },
  {
    "substance-smiles": "COCc1cccc(-n2ncc3c(C)n(-c4cccc(OC)c4)c(C)c3c2=O)c1",
    "target-of-assay": "human metabotropic glutamate 7 receptor (hmGlu7) (Homo sapiens)",
    "result": "> 7.00"
  }
]

From here, focus on the item given below.
Consider "Cc1c2cnn(-c3ncccn3)c(=O)c2c(C)n1-c1cccc2c1ccn2C1CC1" . Its measured pIC50 is > 7.00

----------
target: human metabotropic glutamate 7 receptor (hmGlu7) (Homo sapiens); test: mGlu7 assay on HEK-expressing human mGlu7: fluorescent cell based Ca2+ mobilization assay (FLIPR), inhibition of EC80 L-AP4 response; conditions: HEK-293 cells expressing hmGlu7; EC80 L-AP4 stimulation; mean of at least three independent experiments in duplicate; read-out: Ca2+ Flux (mean IC50)
value-type: IC50

[
  {
    "substance-smiles": "COc1ccc(-n2ncc3c(C)n(-c4ccccn4)c(C)c3c2=O)cc1",
    "IC50": "1000 to 10000 nM"
  },
  {
    "substance-smiles": "CC(=O)c1ccc(-n2ncc3c(C)n(-c4cccc(N5CCC5)c4)c(C)c3c2=O)cc1",
    "IC50": "< 100 nM"
  },
  {
    "substance-smiles": "Cc1cccnc1-n1ncc2c(C)n(-c3cccc(N4CCC4)c3)c(C)c2c1=O",
    "IC50": "100 to 1000 nM"
  },
  {
    "substance-smiles": "Cc1c2cnn(-c3ccc(S(C)(=O)=O)cc3)c(=O)c2c(C)n1-c1ccccc1",
    "IC50": "100 to 1000 nM"
  },
  {
    "substance-smiles": "Cc1c2cnn(-c3ccc(F)cn3)c(=O)c2c(C)n1-c1cccc(N2CCC2)c1",
    "IC50": "< 100 nM"
  }
]

Consider "Cc1c2cnn(-c3ccc(I)cc3)c(=O)c2c(C)n1-c1cccc(N2CCC2)c1" . Its measured IC50 is 1000 to 10000 nM

Consider "Cc1c2cnn(-c3ccc(N4CCOCC4)cc3)c(=O)c2c(C)n1-c1ccccc1" . Its measured IC50 is 100 to 1000 nM

Consider "COc1cccc(-n2ncc3c(C)n(-c4ccccc4)c(C)c3c2=O)c1" . Its measured IC50 is < 100 nM

Consider "COc1cccc(-n2c(C)c3cnn(-c4cc(OC)ccn4)c(=O)c3c2C)c1" . Its measured IC50 is 1000 to 10000 nM

Consider "Cc1c2cnn(-c3ccncc3)c(=O)c2c(C)n1-c1ccccc1" . Its measured IC50 is 100 to 1000 nM

Consider "Cc1c2cnn(-c3ccccc3)c(=O)c2c(C)n1-c1cccc(N2CCCC2=O)c1" . Its measured IC50 is 100 to 1000 nM

Consider "Cc1ccc(-n2ncc3c(C)n(-c4cccc(N5CCC5)c4)c(C)c3c2=O)nc1" . Its measured IC50 is < 100 nM

Consider "Cc1c2cnn(-c3ccc(CCO)cc3)c(=O)c2c(C)n1-c1cccc(N2CCC2)c1" . Its measured IC50 is < 100 nM

Consider "Cc1c2cnn(-c3ccc(F)cc3)c(=O)c2c(C)n1-c1ccccc1" . Its measured IC50 is < 100 nM

----------
target: human metabotropic glutamate 7 receptor (hmGlu7) (Homo sapiens); experiment: mGlu7 assay on HEK-expressing human mGlu7: fluorescent cell based Ca2+ mobilization assay (FLIPR), inhibition of EC80 L-AP4 response; conditions: HEK-293 cells expressing hmGlu7; EC80 L-AP4 stimulation; mean of at least three independent experiments in duplicate; read-out: Ca2+ Flux (mean IC50)
pIC50: −log10 of the molar value.
value-type: pIC50

Answered examples (3):
[
  {
    "compound": "COc1cccc(-n2c(C)c3cnn(-c4ccc(S(N)(=O)=O)cc4)c(=O)c3c2C)c1 [1-120]",
    "result": "> 7.00"
  },
  {
    "compound": "COc1cccc(-n2c(C)c3cnn(-c4ncc(C5CC5)cn4)c(=O)c3c2C)c1C [1-207]",
    "result": "6.00 to 7.00"
  },
  {
    "compound": "COc1cccc(-n2c(C)c3cnn(-c4cncc(OC)c4)c(=O)c3c2C)c1 [1-94]",
    "result": "6.00 to 7.00"
  }
]

Consider Cc1c2cnn(-c3ccccn3)c(=O)c2c(C)n1-c1cccc(-n2cccc2)c1 [1-142] . Its measured pIC50 is > 7.00

Consider Cc1c2cnn(-c3ccc(S(N)(=O)=O)cc3)c(=O)c2c(C)n1-c1ccccc1 [1-28] . Its measured pIC50 is > 7.00

Consider Cc1c2cnn(C3CCCC3)c(=O)c2c(C)n1-c1cccc(N2CCC2)c1 [1-190] . Its measured pIC50 is 6.00 to 7.00

Consider Cc1c2cnn(-c3ncccn3)c(=O)c2c(C)n1-c1cccc(OC2CC2)c1Cl [1-215] . Its measured pIC50 is > 7.00

Consider Cc1c2cnn(-c3ccc(CO)cc3)c(=O)c2c(C)n1-c1ccccc1 [1-92] . Its measured pIC50 is 6.00 to 7.00

Consider COc1ccc(-n2c(C)c3cnn(-c4ccc(CNC(C)=O)cc4)c(=O)c3c2C)cc1 [1-106] . Its measured pIC50 is 6.00 to 7.00
